tested on: B16 melanoma cells; assay: Melanin formation prevention test (melanin production and cell proliferation); assay type: cell-based; settings: 6.3 ppm, 3 days
Measured Degree of melanin inhibition, listed per entry.
Numbers only here, please. The scale is %.

Compound | Endpoint name | Measured number
C=C1CCC2C(C)(C)CCCC2(C)C1CCC(C)CC(=O)OCC (centres unmarked) [Compound 9, labd-8(17)-en-15-oic acid ethyl ester] | Degree of melanin inhibition | 61

Task item: GET Degree of melanin inhibition | system: B16 melanoma cells | item: C=C1CCC2C(C)(C)CCCC2(C)C1CCC(C)CC(=O)O (centres unmarked) [Compound 7, labd-8(17)-en-15-oic acid]
Reply: 79

Task item: Enter recorded Degree of melanin inhibition with B16 melanoma cells for CCOC(=O)CC(C)CCC1=C(C)CCC2C(C)(C)CCCC12C (centres unmarked) [Compound 3, labd-8-en-15-oic acid ethyl ester] here.
Reply: 74

Task item: Look up B16 melanoma cells data: Degree of melanin inhibition of CC1=CCC2C(C)(C)CCCC2(C)C1CCC(C)CC(=O)O (centres unmarked) [Compound 4, labd-7-en-15-oic acid] , then report it.
Reply: 87

Task item: Recall the reported Degree of melanin inhibition of CCOC(=O)CC(C)CCC1C(C)=CCC2C(C)(C)CCCC12C (centres unmarked) [Compound 6, labd-7-en-15-oic acid ethyl ester] when tested on B16 melanoma cells.
Reply: 74
